The values you see were collected from PubChem BioAssay (NCI).

Tested on: IGROV1 ovarian
testName: NCI-60 one-dose screen, 48 h (100 = growth as untreated, 0 = no growth, -100 = all killed)
testParameters: 10 µM unless noted
Compounds without any hit were thinned out: in the full panel of roughly 83,000, 20% have a hit.
measurementName: growth (%)
Write the value in % as a bare number.

O=C(CSc1nnc(-c2ccc(Cl)cc2)n1-c1ccccc1)Nc1ccccc1Cl = 52.3

For this compound ( "Cc1ccc2c(n1)C(=O)C(Cl)=C(Nc1ccccc1C(=O)OC(C)(C)C)C2=O" ), measured growth is 59.6

Entry under test: "Fc1ccc(-c2cn3c(-c4c[nH]c5ccc(Br)cc45)csc3n2)cc1" . Its growth was 63.7

Entry "CC(C)(O)c1cncc(-c2ccc3ncc(C#N)c(N4CCc5cc(F)c(Cl)cc54)c3c2)c1" , growth reported as -14.5

Record "CCOC(=O)C(=O)Nc1ccc2c(ccn2C(=O)c2cccc(F)c2)c1" , field growth: 103

// growth lookup, compound = "CN(C)c1ccc(/C=N/Nc2nc(N/N=C/c3ccc(N(C)C)cc3)nc(N3CCCCC3)n2)cc1" , result: 93.8

###

Tested on: BT-549 breast
testName: NCI-60 one-dose screen, 48 h
testParameters: 10 µM unless noted
Description: Growth inhibition of the BT-549 human tumor cell line is measured as a screen for anti-cancer activity. Cells are grown in 96 well plates and exposed to the test compound for 48 hours. Compounds are tested at a single concentration, which is 10^-5 M for most compounds. The reported endpoint is percent growth (GI% or GIPRCNT), where numbers from 0 - 100% represent growth inhibition, and numbers from -100% - 0 represent cell death. For example, a value of 40 represents 60% growth inhibition. […]
About 83,000 compounds went through this panel and 20% of them were active in at least one assay; those are over-represented in the sample as a whole. The source made the active and inactive calls. Rule for the calls: active = growth percent below 10; inactive = the rest.
Assign a class; possible classes are active, inactive

Example entries begin here.
CCNCCOc1ccc(/C(=C(/CC)c2ccc(Cl)cc2)c2ccc(OCCCN(C)C)cc2)cc1 = active
CC[C@]12C=CCN3CC[C@@]4(c5ccc(OC)cc5N(C)[C@H]4[C@@](O)(C(=O)OC)[C@@H]1OC(=O)CCN1CCc4ccccc4C1)[C@@H]32 = inactive
O=C(/C=C/c1cccc(C(F)(F)F)c1)Nc1cccc(C(F)(F)F)c1 = inactive
Fc1cc(F)cc(NNC(=S)c2ccccc2)c1 = inactive
Oc1[nH]c2ccc(Cl)cc2c1N=Nc1nc(N=Nc2c(O)[nH]c3ccc(Cl)cc23)nc(N2CCCCC2)n1 = inactive

I'd appreciate the recorded outcome for "Cc1ccc2c(n1)C(=O)C(Cl)=C(Nc1ccc(C(C)C)cc1)C2=O" from this test.
inactive

Could you please tell me the result logged for "Cn1ncc2ncc(-c3ccc4ncc(C#N)c(N5CCc6cc(F)c(Cl)cc65)c4c3)cc21" in this assay?
inactive

Call for entry "Brc1ccc2[nH]cc(-c3nn4cc(-c5nccs5)nc4s3)c2c1" :
inactive

Can you look up the reported call for "Cc1ccc(S(=O)(=O)NCCCNc2nccc(-c3[nH]c(-c4ccccc4)nc3-c3ccc(F)c(O)c3)n2)cc1" for me?
inactive

Dear colleague, could you share the recorded outcome for "COc1cccc2c1[C@H](OC)[C@]13O[C@@]1(C2=O)[C@H](O)[C@H](C)[C@@](O)(C(=O)[C@@H]1O[C@H]1C)[C@@H]3O" when you have a moment?
active

###

System: PC-3 prostate
testName: NCI-60 one-dose screen, 48 h
testParameters: 10 µM unless noted
Compounds without any hit were thinned out: in the full panel of roughly 83,000, 20% have a hit. The source made the active and inactive calls. How the source made its calls: active means growth percent below 10; inactive means the rest.
// allowed return values: active, inactive

O=C(/C=C/c1cccc(Br)c1)c1cccc(OCCCCOc2cccc(C(=O)/C=C/c3cccc(Br)c3)c2)c1 = inactive
C#C[C@]1(O)CC[C@H]2[C@@H]3CC=C4c5sc(Nc6ccc(C)cn6)nc5CC[C@]4(C)[C@H]3CC[C@@]21C = active
Cc1ccc2c(n1)C(=O)C(Cl)=C(Nc1ccc(C)c(C)c1)C2=O = inactive
C=C(C)[C@@H]1CC[C@]2(C(=O)NC3CCCCC3)CC[C@]3(C)[C@H](CC[C@@H]4[C@@]5(C)CC[C@H](N)C(C)(C)[C@@H]5CC[C@]43C)[C@@H]12 = inactive
Cc1ccc(/C(N)=N/C(N)=N/c2nc3ccccc3s2)cc1 = inactive
Cc1ccc(C(=O)Nc2ccc(CNCCN3CCOCC3)c(C(F)(F)F)c2)cc1C#Cc1cnc2cccnn12 = inactive

Outcome logged for "Cc1ccc(C(=O)CSc2nc3ccccc3c(=O)n2C)cc1" in this assay:
inactive

Hey, what did the test say about "C=C(C)[C@@H]1CC[C@]2(COP(=O)(OCC)OCC)CC[C@]3(C)[C@H](CC[C@@H]4[C@@]5(C)CC[C@H](OP(=O)(OCC)OCC)C(C)(C)[C@@H]5CC[C@]43C)[C@@H]12" ?
inactive

// param item: "C#Cc1nc(/C=C/CCCCCCC(=O)NO)cs1" ; yields the recorded call
inactive

What did this assay record as the result for "CCCC[n+]1ccc(SCC(=O)n2ccc3ccccc32)c2ccccc21" ?
inactive

Call for entry "O=C1Nc2cc(Cl)ccc2/C1=C\c1ccc(OCc2ccccc2)cc1" :
inactive

Could you please tell me the result logged for "Cn1c(SCC(=O)c2ccc(Br)cc2)nc2ccccc2c1=O" in this assay?
inactive

###

Recorded growth values for a group of molecules are listed next.
Test system: OVCAR-5 ovarian
testName: NCI-60 one-dose screen, 48 h (100 = growth as untreated, 0 = no growth, -100 = all killed)
testParameters: 10 µM unless noted
Compounds without any hit were thinned out: in the full panel of roughly 83,000, 20% have a hit.
Write down the numeric answer in % and omit the unit.

N#Cc1c(-c2cccs2)cc(-c2cnccn2)nc1SCC(=O)N/N=C/c1ccc(Cl)cc1 = 112
Cc1ccc(OCc2occc2C(=O)N2CCOCC2)cc1 = 102
CC1=C(C)C(=O)C(Nc2cccc(C(=O)OC(C)(C)C)c2)=C(Cl)C1=O = 106
N#Cc1nc(-c2ccccc2)oc1N1CCC(C2(C(F)(F)F)N=N2)CC1 = 109
COc1ccc(/C=N/NC(=O)CSc2nc(-c3cnccn3)cc(-c3cccs3)c2C#N)cc1 = 103

growth reading for "CC(=O)Nc1nc(C)c(-c2csc(Nc3ccccc3)n2)s1" : 41.9

Value of measured growth for the entry "COc1ccc2[nH]cc(-c3nn4cc(-c5ccncc5)nc4s3)c2c1" : 107

"COC(=O)c1cccc(NC2=C(Cl)C(=O)c3nc(C)ccc3C2=O)c1" has a reported growth of 99.8

Looking up CCCc1cc2cc(-n3nc(CC)c4c3CC(C)(C)CC4=O)cc(NC3CCC(O)CC3)c2c(=O)[nH]1 (centres undefined) , I found its growth recorded as 35.2

Consider "Fc1ccc(-c2cn3c(-c4c[nH]c5ccc(Br)cc45)csc3n2)cc1" . Its measured growth is 73.8

###

System: OVCAR-4 ovarian
testName: NCI-60 one-dose screen, 48 h (100 = growth as untreated, 0 = no growth, -100 = all killed)
testParameters: 10 µM unless noted
The panel holds about 83,000 compounds, 20% with a hit somewhere; the sample as a whole holds those more often.
So basically: is growth under 80%? Then fulfilled. Not under? Then not fulfilled.

CCN(CC)c1ccc(/C=N/NC(=O)c2ccc(NS(C)(=O)=O)cc2)cc1 = fulfilled
COc1cc2cc(Oc3ccc(NC(=O)Nc4ccc(F)c(C(F)(F)F)c4)cc3)c(C)nc2cc1OCCN(C)C = not fulfilled

growth under 80%? Item: "C#C[C@]1(O)CC[C@H]2[C@@H]3CC=C4c5sc(Nc6ccc(C)cn6)nc5CC[C@]4(C)[C@H]3CC[C@@]21C"
fulfilled

###

System: SF-295 CNS
testName: NCI-60 one-dose screen, 48 h (100 = growth as untreated, 0 = no growth, -100 = all killed)
testParameters: 10 µM unless noted
Description: Cells are grown in 96 well plates and exposed to the test compound for 48 hours. Compounds are tested at a single concentration, which is 10^-5 M for most compounds. The reported endpoint is percent growth (GI% or GIPRCNT), where numbers from 0 - 100% represent growth inhibition, and numbers from -100% - 0 represent cell death. For example, a value of 40 represents 60% growth inhibition. A value of 0 means no net growth occurred over the course of the experiment. […]
About 83,000 compounds went through this panel and 20% of them were active in at least one assay; those are over-represented in the sample as a whole.
Given measured growth, output condition met if it is greater than or equal to 80% and condition not met if not.

Solved entries:
O=C(CCCCCCNC(=O)C(O)(O)C(F)(F)F)Nc1nc2ccccc2s1 = condition not met
Cn1c2nc3ccccc3c-2cc2ccccc21 = condition not met
Cc1csc(/N=C(N)/N=C(\N)c2cccnc2)n1 = condition not met
CCCCc1nc2c(N)nc3ccccc3c2n1Cc1cccc(CN)c1 = condition not met
C#CCOc1cccc(/C(N)=N/C(N)=N/c2nc3ccccc3s2)c1 = condition not met

Kindly determine if growth recorded for COc1ccc(C2CC(c3cccc(OCCCCOc4cccc(C5=NN(C(C)=O)C(c6ccc(OC)cc6)C5)c4)c3)=NN2C(C)=O)cc1 (configuration not stated) is above or exactly 80%.
condition not met

Confirm if growth reported for the compound "C#Cc1nc(/C=C/CCCCCCC(=O)NO)cs1" is 80% or above.
condition met

Record "CCCCSC1=C(Cl)CN(c2ccc(Cl)cc2)C1=O" ; criterion: growth no lower than 80%. Met?
condition met
